Listed here: items and their measured Mean % WT Binding.
- experimental.system: human CD33 T152A (human, UniProt P20138 18-364)
- Sequence (P20138 18-364 T152A limits assumed): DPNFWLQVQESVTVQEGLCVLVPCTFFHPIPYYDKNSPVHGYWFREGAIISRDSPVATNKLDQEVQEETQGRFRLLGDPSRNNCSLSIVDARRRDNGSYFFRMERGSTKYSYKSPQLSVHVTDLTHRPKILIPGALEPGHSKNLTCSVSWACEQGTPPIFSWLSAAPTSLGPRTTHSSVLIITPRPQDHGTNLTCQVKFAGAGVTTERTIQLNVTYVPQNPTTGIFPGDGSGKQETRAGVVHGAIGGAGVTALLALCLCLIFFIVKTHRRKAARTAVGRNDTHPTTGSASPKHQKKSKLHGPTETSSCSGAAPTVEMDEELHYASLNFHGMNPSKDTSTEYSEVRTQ
- run.description: flow cytometry on HEK293-T, alanine scan
The answer is to be given in % WT binding; state only the numeric part.

As a guide, the following entries are already answered.
binder | value.reported
Refmab #4 (antibody, V domains shown, The alanine scan used IgG or Fab) VH: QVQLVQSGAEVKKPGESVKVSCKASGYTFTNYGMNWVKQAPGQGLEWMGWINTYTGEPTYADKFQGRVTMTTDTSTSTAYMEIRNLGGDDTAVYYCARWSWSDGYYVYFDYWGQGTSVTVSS VL: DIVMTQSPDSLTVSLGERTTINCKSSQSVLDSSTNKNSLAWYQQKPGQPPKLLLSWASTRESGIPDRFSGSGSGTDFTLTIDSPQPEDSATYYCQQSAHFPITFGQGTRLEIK | 110
Refmab #3 (antibody, V domains shown, The alanine scan used IgG or Fab) VH: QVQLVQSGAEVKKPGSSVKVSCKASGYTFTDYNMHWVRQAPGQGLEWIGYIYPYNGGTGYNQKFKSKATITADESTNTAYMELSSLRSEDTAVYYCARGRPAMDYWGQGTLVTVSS VL: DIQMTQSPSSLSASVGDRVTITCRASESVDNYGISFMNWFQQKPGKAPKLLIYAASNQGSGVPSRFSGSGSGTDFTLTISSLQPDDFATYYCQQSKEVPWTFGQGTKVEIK | 155
Refmab #1 (antibody, V domains shown, The alanine scan used IgG or Fab; also called hP67.6) VH: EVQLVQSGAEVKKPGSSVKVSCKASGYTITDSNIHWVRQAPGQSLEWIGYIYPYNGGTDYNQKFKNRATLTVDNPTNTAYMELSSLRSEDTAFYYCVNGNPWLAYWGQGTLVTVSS VL: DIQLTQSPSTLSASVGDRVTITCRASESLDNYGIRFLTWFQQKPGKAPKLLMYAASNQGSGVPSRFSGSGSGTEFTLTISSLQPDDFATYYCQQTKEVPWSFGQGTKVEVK | 86.3

Shifting focus to the binder that follows.
Requested field: Mean % WT Binding. Item: Refmab #2 (antibody, V domains shown, The alanine scan used IgG or Fab) VH: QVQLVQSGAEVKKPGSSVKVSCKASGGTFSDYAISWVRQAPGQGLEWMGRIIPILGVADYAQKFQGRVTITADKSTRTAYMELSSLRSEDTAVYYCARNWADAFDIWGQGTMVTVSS VL: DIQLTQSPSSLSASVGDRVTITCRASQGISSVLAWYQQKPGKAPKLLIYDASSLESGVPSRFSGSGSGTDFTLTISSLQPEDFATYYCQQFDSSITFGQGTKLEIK
117
